Origin of the recorded values: the supplement of paper PMC4858399

System: Caenorhabditis elegans N2
Experiment notes: mean nematode size ln(EXT) after 48 h, plate-adjusted (DMSO control set to 6) (ln(EXT), control-adjusted); higher = larger nematodes / less growth inhibition
Condition summary: 10 µM; exposure time 48 h
Below, each entry is listed with its recorded mean nematode size ln(EXT) (ln).

{"Compound": "[Cl][Hg][Cl] [Mercuric chloride]", "mean nematode size ln(EXT) (ln)": 4.41}
{"Compound": "CCCN(CCC)c1c([N+](=O)[O-])cc(C(F)(F)F)c(N)c1[N+](=O)[O-] [Prodiamine]", "mean nematode size ln(EXT) (ln)": 5.75}
{"Compound": "CNC(=O)Oc1cccc2c1OC(C)(C)O2 [Bendiocarb]", "mean nematode size ln(EXT) (ln)": 5.79}
{"Compound": "Nc1c(Cl)cc([N+](=O)[O-])cc1Cl [Dichloran]", "mean nematode size ln(EXT) (ln)": 5.73}
{"Compound": "CCCCCCc1ccc(O)cc1O [4-Hexylresorcinol]", "mean nematode size ln(EXT) (ln)": 5.84}

###

System: Caenorhabditis elegans N2
Experiment notes: lowest effective concentration for larval growth inhibition (size below effect threshold); higher = less potent
Condition summary: exposure time 48 h
Structures can show the parent of a compound that is named as a salt.
Measured lowest effective concentration values are reported for all entries that follow.

{"Compound": "Nc1nc(N)nc(NC2CC2)n1 [Cyromazine]", "lowest effective concentration": "> 200 µM"}
{"Compound": "CCc1ccc(CCOc2ccc(CC3SC(=O)NC3=O)cc2)nc1 (stereo not drawn) [Pioglitazone HCl]", "lowest effective concentration": "> 200 µM"}
{"Compound": "CCOC(=O)COc1cc(-c2nn(C)c(OC(F)F)c2Cl)c(F)cc1Cl [Pyraflufen-ethyl]", "lowest effective concentration": "> 200 µM"}

###

Quick reference for mean nematode size ln(EXT) (ln) among some molecules
Tested on: Caenorhabditis elegans N2
Experiment notes: mean nematode size ln(EXT) after 48 h, plate-adjusted (DMSO control set to 6) (ln(EXT), control-adjusted); higher = larger nematodes / less growth inhibition
Condition summary: 1 µM; exposure time 48 h
Measured quantity: mean nematode size ln(EXT) (ln)

{"Molecule": "C=CC(=C)CCC=C(C)C", "Test result": 5.75}
{"Molecule": "O=C(Oc1ccccc1)c1cccc(C(=O)Oc2ccccc2)c1 [Diphenyl isophthalate]", "Test result": 5.89}
{"Molecule": "CCCCNC(=O)OCC#CI [3-Iodo-2-propynylbutylcarbamate]", "Test result": 5.98}

###

Test system: Caenorhabditis elegans N2
Experiment notes: lowest effective concentration for larval growth inhibition (size below effect threshold); higher = less potent
Condition summary: exposure time 48 h
// reported lowest effective concentration per item

{"Compound": "Cc1ccc([N+](=O)[O-])cc1", "lowest effective concentration": "> 200 µM"}
{"Compound": "O=C1NC(=O)C(c2ccccc2)(c2ccccc2)N1", "lowest effective concentration": "> 200 µM"}
{"Compound": "O=NO [Sodium nitrite]", "lowest effective concentration": "> 200 µM"}
{"Compound": "CCOC(=O)CCC(=O)OCC", "lowest effective concentration": "> 200 µM"}
{"Compound": "Cc1nc(-c2ccccn2)ncc1C(=O)Nn1cc(C)c2cc(F)ccc21", "lowest effective concentration": "> 200 µM"}
{"Compound": "CCCN(CCC)C(=O)SCC", "lowest effective concentration": "> 200 µM"}
{"Compound": "CCC(C)n1c(=O)[nH]c(C)c(Br)c1=O (stereo not given)", "lowest effective concentration": "> 200 µM"}
{"Compound": "Nc1cccc2c(N)cccc12", "lowest effective concentration": "> 200 µM"}
{"Compound": "CCOP(=S)(OCC)Oc1nc(Cl)c(Cl)cc1Cl", "lowest effective concentration": "≤ 0.5 µM"}
{"Compound": "Clc1ccc(C(c2ccc(Cl)cc2)C(Cl)Cl)cc1", "lowest effective concentration": "≤ 0.5 µM"}

###

Tested on: Caenorhabditis elegans N2
Experiment notes: mean nematode size ln(EXT) after 48 h, plate-adjusted (DMSO control set to 6) (ln(EXT), control-adjusted); higher = larger nematodes / less growth inhibition
Condition summary: 0.5 µM; exposure time 48 h
Structures can show the parent of a compound that is named as a salt.
The molecules listed here are annotated with their mean nematode size ln(EXT) (ln).
Measured quantity: mean nematode size ln(EXT) (ln)

{"Molecule": "CC(C)Oc1cccc(NC(=O)c2ccccc2C(F)(F)F)c1", "Test result": 5.94}
{"Molecule": "Nc1cnn(-c2ccccc2)c(=O)c1Cl", "Test result": 5.51}
{"Molecule": "O=C(O)COc1ccc(Cl)cc1Cl", "Test result": 5.91}
{"Molecule": "CCCCCCCCCCCC[N+](C)(C)C [Dodecyl trimethyl ammonium chloride]", "Test result": 5.76}
{"Molecule": "O=c1[nH]sc2ccccc12", "Test result": 5.72}
{"Molecule": "O=c1[nH]cnc2c1ncn2[C@H]1CC[C@@H](CO)O1", "Test result": 5.88}
{"Molecule": "Cn1c(=O)c2nc[nH]c2n(C)c1=O", "Test result": 5.97}
{"Molecule": "CCCOC(=O)NCCCN(C)C [Propamocarb hydrochloride]", "Test result": 5.84}
{"Molecule": "C=CCC1=C(C)[C@@H](OC(=O)[C@@H]2[C@@H](C=C(C)C)C2(C)C)CC1=O", "Test result": 5.65}
{"Molecule": "Nc1ccc(Cl)cc1", "Test result": 5.79}
{"Molecule": "CCOP(=S)(OCC)SCn1c(=O)oc2cc(Cl)ccc21", "Test result": 5.76}
{"Molecule": "Cc1ccc(C(C)(C)C)c(O)c1", "Test result": 6.07}
{"Molecule": "CC(C)(C)OOC(C)(C)C [Di-tert-butyl peroxide]", "Test result": 5.88}
{"Molecule": "COCCOCCOC", "Test result": 5.88}
{"Molecule": "CCC(=O)Nc1ccc(Cl)c(Cl)c1", "Test result": 5.8}
{"Molecule": "CCN(C(=O)c1cc(C)cc(OC[C@H](C)Nc2ccncc2)c1)C(C)C", "Test result": 5.67}
{"Molecule": "N=C(N)c1ccc(OCCCCCOc2ccc(C(=N)N)cc2)cc1 [Pentamidine isethionate salt]", "Test result": 6.04}
{"Molecule": "NC(=O)NO [Hydroxyurea]", "Test result": 6}
{"Molecule": "CC(C)=CCC/C(C)=C\\CO [cis-3,7-Dimethyl-2,6-octadien-1-ol]", "Test result": 5.8}

###

# lowest effective concentration values compiled below
System: Caenorhabditis elegans N2
Experiment notes: lowest effective concentration for larval growth inhibition (size below effect threshold); higher = less potent
Condition summary: exposure time 48 h
Measured quantity: lowest effective concentration (µM)

{"Molecule": "CC(C)(C)[C@H](O)[C@H](Cc1ccc(Cl)cc1)n1cncn1 (racemic)", "Measured quantity": "lowest effective concentration", "Unit text": "µM", "Test result": 50}
{"Molecule": "CCCCC(CC)COC(=O)CC(C(=O)OCC(CC)CCCC)S(=O)(=O)O (stereo not given) [Docusate sodium]", "Measured quantity": "lowest effective concentration", "Unit text": "µM", "Test result": 50}
{"Molecule": "CC(C)(C)c1cc(O)ccc1O [tert-Butylhydroquinone]", "Measured quantity": "lowest effective concentration", "Unit text": "µM", "Test result": 50}
{"Molecule": "CCc1nc(N)nc(N)c1-c1ccc(Cl)cc1", "Measured quantity": "lowest effective concentration", "Unit text": "µM", "Test result": 50}
{"Molecule": "C1CCC(SSC2CCCCC2)CC1 [Dicyclohexyl disulfide]", "Measured quantity": "lowest effective concentration", "Unit text": "µM", "Test result": 50}

###

mean nematode size ln(EXT) (ln) values, listed per item
Test system: Caenorhabditis elegans N2
Experiment notes: mean nematode size ln(EXT) after 48 h, plate-adjusted (DMSO control set to 6) (ln(EXT), control-adjusted); higher = larger nematodes / less growth inhibition
Condition summary: 5 µM; exposure time 48 h
Measured quantity: mean nematode size ln(EXT) (ln)

{"Compound": "CC[C@H](C)C(=O)O[C@H]1C[C@@H](C)C=C2C=C[C@H](C)[C@H](CC[C@@H]3C[C@@H](O)CC(=O)O3)[C@H]21 [Lovastatin]", "Test result": 5.8}
{"Compound": "C#CCC1=C(C)C(OC(=O)C2C(C=C(C)C)C2(C)C)CC1=O (configuration not stated) [Prallethrin]", "Test result": 6.07}
{"Compound": "O=[N+]([O-])c1ccc(O)cc1 [Sodium p-nitrophenolate]", "Test result": 5.92}
{"Compound": "COP(=S)(OC)SCn1nnc2ccccc2c1=O [Azinphos-methyl]", "Test result": 6.04}
{"Compound": "CCN(CC)C(=O)c1cc(S(=O)(=O)Cc2ccccc2)c(N2CCC(c3ccccc3)CC2)cc1N(CC)CCN(C)C", "Test result": 5.67}
{"Compound": "CCc1cccc(C)c1N(C(=O)CCl)C(C)COC (configuration not stated) [Metolachlor]", "Test result": 5.74}
{"Compound": "CCCCC(CC)COC(=O)c1ccccc1C(=O)OCC(CC)CCCC (configuration not stated) [Diethylhexyl phthalate]", "Test result": 5.76}
{"Compound": "O=S(=O)(O)c1ccc(N=Nc2c(O)ccc3cc(S(=O)(=O)O)ccc23)cc1 [FD&C Yellow no. 6]", "Test result": 5.74}
{"Compound": "O=C(O)c1ccc2c(c1)nc(C(=O)NC1CCN(C3CC3)CC1)n2Cc1cc(-c2ccc(Cl)s2)on1", "Test result": 5.71}
{"Compound": "CC1=C(/C=C/C(C)=C/C=C/C(C)=C/CO)C(C)(C)CCC1 [Retinol]", "Test result": 5.91}
{"Compound": "C=CC(=O)NCNC(=O)C=C [N,N'-Methylenebis(acrylamide)]", "Test result": 6.06}
{"Compound": "CCO[Si](CCCNC(N)=O)(OCC)OCC [3-Ureidopropyltriethoxysilane]", "Test result": 5.84}
{"Compound": "CC(C)(O)c1cnn2c(-c3ccc(F)c(-c4c(F)cccc4C#N)c3)cnc2n1", "Test result": 5.71}
{"Compound": "CC(C)[C@H](C(=O)O[C@H](C#N)c1cccc(Oc2ccccc2)c1)c1ccc(Cl)cc1 [Esfenvalerate]", "Test result": 5.9}
{"Compound": "CNC(=O)N(C)c1nnc(C(C)(C)C)s1 [Tebuthiuron]", "Test result": 5.89}
{"Compound": "CC(C)N(C(=O)COc1nnc(C(F)(F)F)s1)c1ccc(F)cc1 [Flufenacet]", "Test result": 6.03}
{"Compound": "O=[N+]([O-])c1ccc(O)c([N+](=O)[O-])c1 [2,4-Dinitrophenol]", "Test result": 5.78}
